TARGET_DESC: human IL-1 Beta (human) (UniProt P01584)
Sequence (P01584 117-269 limits assumed): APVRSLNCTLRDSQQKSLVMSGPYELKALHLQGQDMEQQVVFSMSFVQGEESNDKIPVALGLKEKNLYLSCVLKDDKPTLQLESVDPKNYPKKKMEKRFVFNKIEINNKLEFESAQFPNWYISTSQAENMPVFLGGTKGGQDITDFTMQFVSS
TEST_DETAILS: competition ELISA, periplasmic extract; competitor: coated mouse mAb (Diaclone); reduced signal means competition
REPORTED_ENDPOINT: OD signal in the competition assay (OD)
Return type: number; implicit unit OD.

Determine from records and report OD signal in the competition assay for Fab 1B3 (Fab, part only; not given: lambda light chain, V domains shown, not shown: a dimerising Fc or GST) VH: EVQLVQSGAELRNPGASVKVSCKASGYTFTSYYIDWVRQAPGQGLEWMGRIDPEDGGTKYAQKFQGRVTFTADTSTSTAYVELSSLRSEDTAVYYCARSGRYELDYWGQGTQVTVSS
0.444

Tell us which OD signal in the competition assay value is on record for Fab 1C3 (Fab, part only; not given: lambda light chain, V domains shown, not shown: a dimerising Fc or GST) VH: EVQLVESGGGLVQPGGSLRLSCAASGFTFSSYWMYWVRQAPGKGLEWVSAINTGGGRTYYADSVKGRFTISRDNAKNTLYLQMNSLKSEDTAVYYCAKGTSADGSSWYVPADPYDYWGQGTQVTVSS
0.386

Provide measured OD signal in the competition assay value, entry: Fab 1G1 (Fab, part only; not given: light chain, V domains shown, part only) VH: EVQLVQSGAELRNPGASVKVSCKASGYTFTSYYTDWVRQAPGQGLEWMGRIDPEDGDTKYAQKFQGRVTFTADTSTSTAYVELTSLRSEDTAVYYCLRSGAYELDYWGQGTQVTVSS
0.498

For the binder Fab 1A1 (Fab, part only; not given: lambda light chain, V domains shown, not shown: a dimerising Fc or GST) VH: EVQLVESGGGLVQPGGSLRLSCAASGFTFDDYAMSWVRQAPGKGLEWVSTISWNGGATYYAESMKGRFTISRDNAKNTLYLQMNSLKSEDTAVYYCAKPYYSDYVGVEYDYWGQGTQVTVSS , report OD signal in the competition assay.
0.205

Measured values drawn from patent EP3061768A1 for this set.
